The measured values listed here are drawn from patent US10683553B2.

- System: KM12C colon cancer cell line
- protocol_description: MTS cell viability / IC50
- Format: cell-based, human
- condition_parameters: Homo sapiens; KM12C, p53 Mutant type cell line
pIC50: −log10 of the molar value.
test_readout: pIC50

Ask: If you can, please state the reported pIC50 value of CCOc1cc(CN(C)C)cc2[nH]c(=O)c3c(c12)NCCC3 [Compound A] .
Result: < 4.00

----------
- System: HCT-15 colon cancer cell line
- protocol_description: MTS cell viability / IC50
- Assay type: cell-based
- condition_parameters: Homo sapiens; HCT-15, p53 Mutant type cell line
test_readout: IC50

Ask: If you can, please state the reported IC50 value of CCOc1cc(CN(C)C)cc2[nH]c(=O)c3c(c12)NCCC3 .
Result: > 100 µM

----------
- Tested on: Colo205 colon cancer cell line
- protocol_description: MTS cell viability / IC50
- Assay type: cell-based
- condition_parameters: Homo sapiens, COLO 205; Colo205; MTS, 72 hours
test_readout: IC50 (µM)
Use µM as the unit, but write only the number.

Ask: If you can, please state the reported IC50 value of CCOc1cc(CN(C)C)cc2[nH]c(=O)c3c(c12)NCCC3 [Compound A] .
Result: 24.4

----------
- System: Colo320HSR colon cancer cell line
- protocol_description: MTS cell viability / IC50
- Assay type: cell-based
- condition_parameters: Homo sapiens, COLO-320-HSR; Colo320; MTS, 72 hours
test_readout: pIC50
Expect pIC50 as a plain number equal to -log10 of the molar concentration.

Ask: If you can, please state the reported pIC50 value of CCOc1cc(CN(C)C)cc2[nH]c(=O)c3c(c12)NCCC3 .
Result: 5.08

----------
- Tested on: KM12C human colon cancer cell line
- protocol_description: Trypan blue staining apoptosis assay
- Assay type: cell-based
- condition_parameters: KM12C (p53 MT/LIG4 MT); 25 μM and 50 μM, 48 hours
test_readout: degree of apoptosis (trypan blue cell count)

- molecule: "CCOc1cc(CN(C)C)cc2[nH]c(=O)c3c(c12)NCCC3"
  recorded_result: "No apoptosis occurred"
- molecule: "N#Cc1ccc(N2CCN(Cc3ccc4c5c(c(=O)[nH]c4c3)CCCN5)CC2)nc1"
  recorded_result: "No apoptosis occurred"
- molecule: "O=C(c1cc(Cc2n[nH]c(=O)c3ccccc23)ccc1F)N1CCN(C(=O)C2CC2)CC1 [olaparib, reference compound]"
  recorded_result: "No apoptosis occurred"
- molecule: "COc1ccc(C(=O)C2CCN(CC(=O)N(Cc3nc4c(c(=O)[nH]3)COCC4)CC3CC3)CC2)cc1 [NVP-TNKS656, reference compound]"
  recorded_result: "No apoptosis occurred"

----------
- Tested on: SW620 colon cancer cell line
- protocol_description: MTS cell viability / IC50
- Format: cell-based
- condition_parameters: Homo sapiens, SW-620; SW620, p53 Mutant type cell line
test_readout: pIC50
Expect pIC50 as a plain number equal to -log10 of the molar concentration.

Ask: If you can, please state the reported pIC50 value of CCOc1cc(CN(C)C)cc2[nH]c(=O)c3c(c12)NCCC3 .
Result: 4.01

----------
- Test system: HCT-15 colon cancer cell line
- protocol_description: MTS cell viability / IC50
- Type: cell-based
- condition_parameters: Homo sapiens; HCT-15; MTS, 72 hours
pIC50: −log10 of the molar value.
test_readout: pIC50

Ask: Return pIC50 measured with HCT-15 colon cancer cell line given this compound: CCOc1cc(CN(C)C)cc2[nH]c(=O)c3c(c12)NCCC3
Result: < 4.00
